MEASURED_TARGET: Amine oxidase [flavin-containing] A (Homo sapiens)
Sequence (P21397 whole entry): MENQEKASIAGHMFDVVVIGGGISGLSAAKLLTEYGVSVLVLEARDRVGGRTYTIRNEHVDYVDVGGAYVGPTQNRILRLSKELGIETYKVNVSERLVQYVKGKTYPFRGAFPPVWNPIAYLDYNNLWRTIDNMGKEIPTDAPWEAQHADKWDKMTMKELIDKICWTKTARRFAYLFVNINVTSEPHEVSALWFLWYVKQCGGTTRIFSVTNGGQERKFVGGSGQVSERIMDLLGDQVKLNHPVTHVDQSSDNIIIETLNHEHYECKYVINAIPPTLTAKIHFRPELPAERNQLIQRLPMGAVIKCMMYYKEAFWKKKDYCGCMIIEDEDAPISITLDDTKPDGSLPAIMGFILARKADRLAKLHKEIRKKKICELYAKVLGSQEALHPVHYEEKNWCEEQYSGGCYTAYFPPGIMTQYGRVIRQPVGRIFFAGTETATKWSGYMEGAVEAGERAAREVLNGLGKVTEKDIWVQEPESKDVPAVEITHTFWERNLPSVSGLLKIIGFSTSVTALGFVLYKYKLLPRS
TEST_DESCRIPTION: Inhibition of human recombinant microsomal MAO-A expressed in baculovirus infected BTI-TN-5B1-4 cells assessed as reduction in production of H202 using p-tyramine as substrate incubated for 30 mins followed by substrate addition by horse radish peroxidase/Amplex red reagent based fluorescence assay
Format: cell-based
PARTICULARS: read-out: IC50
The entries below are paired with their reported pIC50.
On this scale, pIC50 is minus log10 of a concentration expressed in M (mol/L).

Known pIC50 results, listed for orientation:
C#CCOc1ccc(-c2cc(-c3ccc(OCC#C)c(OC)c3)nc(C)n2)cc1    4.60
C#CCOc1ccc(-c2cc(-c3ccc(OCC#C)cc3)nc(N)n2)cc1    4.49

Query string: Quick one: pIC50 of `C#CCOc1ccc(-c2cc(-c3ccccc3OCC#C)nc(C)n2)cc1` ?
Result string: 4.63

Query string: Quick one: pIC50 of `C#CCOc1ccc(-c2cc(-c3ccccc3OCC#C)nc(N)n2)cc1` ?
Result string: 4.54
